- System: HepG2
- Test: cell viability relative to DMSO; higher = less toxic
- Measurement Context: 72 h; 10 nM
Measurement Type: cell viability

{"columns": ["Molecule", "cell viability"],
 "data": [
  ["Oc1ccc(C2(c3ccccc3F)CCC(F)(F)CC2)cc1 [AC-186]", "94.7%"],
  ["CC1(C)O[C@@H]2[C@@H](CO[C@@]3(COS(N)(=O)=O)OC(C)(C)O[C@@H]23)O1 [topiramate]", "96.9%"],
  ["COc1cc(Nc2ncc3c(n2)-c2ccc(Cl)cc2C(c2c(F)cccc2OC)=NC3)ccc1C(=O)O [alisertib]", "98%"]
]}

Field request: cell viability | item: Cc1nnc(NS(=O)(=O)c2ccc(N)cc2)s1 [sulfamethizole] 111%

Field request: cell viability | item: C[C@H]1CO[C@@H]2Cn3cc(C(=O)NCc4ccc(F)cc4F)c(=O)c(O)c3C(=O)N12 112%

Data origin, for the record: the supplement of paper PMC13380429
